Reference source: the RNAGym collection of RNA variant scans (doi:10.7554/elife.80360)

B1: Hairpin Ribozyme (parent)
chain: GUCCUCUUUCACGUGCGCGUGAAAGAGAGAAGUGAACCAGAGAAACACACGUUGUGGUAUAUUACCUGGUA

# Variants of: B1
# ASSAY TEXT: self-cleavage, relative activity (ratio to wild type); higher = more cleavage; co-transcriptional
Rule: self-cleavage of 0.1 or more gives Met; anything lower gives Not met.

Take a look at these entries with their results.
{"columns": ["ENTRY SEQUENCE", "CLASS NAME"],
 "data": [
  ["GUCCUCUUUCACGUGCGAGUGAAAUAGAGAAGUGAACCAGAGAAACACACGUUGUGGUAUAUUACCUGGUA", "Met"],
  ["GUCCUCUUUCACGUGCACGUGAAAGAGAGAAGUGAACCAGAGAAACACACGUUGUGGUAUAUUACCUGGUU", "Met"],
  ["GUCCUCUUUCACGUGCGCGUGAAAGAGAGAAGGGAACCAGAGAAACACACGGUGUGGUAUAUUACCUGGUA", "Not met"],
  ["GUCCUCUUUCACGUGCGCGUGAAAGAGAGAAGUGAACCACAGAAACAGACGUUGUGGUAUAUUACCUGGUA", "Met"]
]}

Query: State whether the measured self-cleavage reaches 0.1, counting equality as reaching it, for "GUCCUCUUCCACGUGCGCGUGAAAGAGAGAAGUGAACCAGAGAAACACACGUUGUGGUAUAUUACCUGGUC"
Response: Met

Query: Next variant: "GUCCUCUUUCACGUGCGCGUGAAAGAGAGAAGUGAACCAGAGAAACAGACGUUGUGGUAUAUUACCGGGUA"
Response: Met

Query: // next record "GUCCUCUUUCACGUGCGCGUGAAAGAAAGAAGUGAACCAGAGAACCACACGUUGUGGUAUAUUACCUGGUA"
Response: Met

Query: Field entry: "GACCUCUUUCACGUGCGCGUGAAAGAGAGAAGUGACCCAGAGAAACACACGUUGUGGUAUAUUACCUGGUA"
Response: Met
